Test system: HLA-A*24
Test: MHC binding assay by UV-ligand exchange and beta2m ELISA (HLA-A*24)
Parameters: species or system human
Conditions: peptide exchange yield, binding to HLA-A*24; UV-ligand exchange, beta2m ELISA
Endpoint: Peptide exchange

Recorded Peptide exchange, per entry:
INSERT INTO measurements (substance, result) VALUES
  ('158 (HYSQELSLLYL; listed as Homo sapiens) [compound 158]', '++++ (> = 75% = ++++)'),
  ('184 (VFQNFPLLF; listed as Homo sapiens) [compound 184]', '++++ (> = 75% = ++++)'),
  ('271 (LYHDIFSRL; listed as Homo sapiens) [compound 271]', '++++ (> = 75% = ++++)'),
  ('177 (VYPWLGALL; listed as Homo sapiens) [compound 177]', '++++ (> = 75% = ++++)');

Item 166 (YYVESGKLF; listed as Homo sapiens) [compound 166] has what recorded Peptide exchange?
++++ (> = 75% = ++++)

Item 195 (TYSVSFPMF; listed as Homo sapiens) [compound 195] has what recorded Peptide exchange?
++++ (> = 75% = ++++)

Item 186 (IFPQFLYQF; listed as Homo sapiens) [compound 186] has what recorded Peptide exchange?
++++ (> = 75% = ++++)

Item 278 (RYISDQLFTNF; listed as Homo sapiens) [compound 278] has what recorded Peptide exchange?
++++ (> = 75% = ++++)

Item 277 (VYQGHTALL; listed as Homo sapiens) [compound 277] has what recorded Peptide exchange?
++++ (> = 75% = ++++)

Item 160 (VYTLDIPVL; listed as Homo sapiens) [compound 160] has what recorded Peptide exchange?
++++ (> = 75% = ++++)

Item 267 (KYMVYPQTF; listed as Homo sapiens) [compound 267] has what recorded Peptide exchange?
++++ (> = 75% = ++++)

Item 181 (LYLDIINLF; listed as Homo sapiens) [compound 181] has what recorded Peptide exchange?
++++ (> = 75% = ++++)

----------
Molecular target: HLA-A*02 (Homo sapiens, UniProt P04439, D140Y/D185E/D98H/E176V/E277Q/G131W/G231S/I119V/I121R/I166T/I218V/L300P/N151K/N90K/P208A/P217A/Q86G/Q94H/R138H/R169H)
Assay: MHC binding assay by UV-ligand exchange and beta2m ELISA (HLA-A*02)
Settings: peptide exchange yield, binding to HLA-A*02; UV-ligand exchange, beta2m ELISA
Endpoint: Peptide exchange

INSERT INTO measurements (substance, result) VALUES
  ('133 (ALLPRLHQL; listed as Homo sapiens) [compound 133]', '++++ (> = 75% = ++++)'),
  ('1 (LLYPEPWSV; listed as Homo sapiens) [compound 1]', '++++ (> = 75% = ++++)'),
  ('4 (KLMPGTYTL; listed as Homo sapiens) [compound 4]', '++++ (> = 75% = ++++)'),
  ('95 (GLLGSLFFL; listed as Homo sapiens) [compound 95]', '++++ (> = 75% = ++++)');

----------
System: CD8+ T cells
Test: In vitro T-cell priming assay (aAPCs loaded with peptide/MHC and anti-CD28), pMHC multimer readout
Assay type: cell-based, human
Conditions: in vitro immunogenicity of HLA class I peptides; peptide specific pMHC multimer staining after three stimulation cycles
Endpoint: Wells positive [%]

Recorded Wells positive [%], per entry:
INSERT INTO results (substance, endpoint, result) VALUES
  ('196 (LYIDRPLPYL; listed as Homo sapiens) [compound 196]', 'Wells positive [%]', '++++ (> = 70% = ++++)'),
  ('159 (LYNKGFIYL; listed as Homo sapiens) [compound 159]', 'Wells positive [%]', '++++ (> = 70% = ++++)'),
  ('163 (DYLKGLASF; listed as Homo sapiens) [compound 163]', 'Wells positive [%]', '+ (<20% = +)'),
  ('204 (TYELRYFQI; listed as Homo sapiens) [compound 204]', 'Wells positive [%]', '+ (<20% = +)'),
  ('5 (GIVAHIQEV; listed as Homo sapiens) [compound 5]', 'Wells positive [%]', '+ (<20% = +)');

Item 18 (ILLDLTDNRL; listed as Homo sapiens) [compound 18] has what recorded Wells positive [%]?
+ (<20% = +)

Item 218 (YYKSTSSAF; listed as Homo sapiens) [compound 218] has what recorded Wells positive [%]?
+ (<20% = +)

Item 249 (GLCERLVSL; listed as Homo sapiens) [compound 249] has what recorded Wells positive [%]?
+ (<20% = +)

Item 23 (SLFSDEFKV; listed as Homo sapiens) [compound 23] has what recorded Wells positive [%]?
++++ (> = 70% = ++++)

Item 268 (QYLGQIQHI; listed as Homo sapiens) [compound 268] has what recorded Wells positive [%]?
+ (<20% = +)

Item 269 (YFIDSTNLKTHF; listed as Homo sapiens) [compound 269] has what recorded Wells positive [%]?
+ (<20% = +)

Item 29 (YLLDPSITL; listed as Homo sapiens) [compound 29] has what recorded Wells positive [%]?
+ (<20% = +)

Item 207 (AYVVFVSTL; listed as Homo sapiens) [compound 207] has what recorded Wells positive [%]?
+ (<20% = +)

Item 197 (EYSLFPGQVVI; listed as Homo sapiens) [compound 197] has what recorded Wells positive [%]?
+ (<20% = +)

Item 12 (GLLPLLHRA; listed as Homo sapiens) [compound 12] has what recorded Wells positive [%]?
++++ (> = 70% = ++++)

Item 167 (NYINRILKL; listed as Homo sapiens) [compound 167] has what recorded Wells positive [%]?
+ (<20% = +)

Item 165 (DYTTWTALL; listed as Homo sapiens) [compound 165] has what recorded Wells positive [%]?
+ (<20% = +)

Item 158 (HYSQELSLLYL; listed as Homo sapiens) [compound 158] has what recorded Wells positive [%]?
+ (<20% = +)
